- ASSAY OVERVIEW: Coupling of water and octanoic acid by hydrotropes (amount producing a single phase)
- Assay type: physicochemical
- TEST PARAMETERS: ratio of water:octanoic acid 90:10
Parameter: Wt % Octanoic Acid (resulting, at compatibilization). Scope: all listed entries.
Dear colleague, please return just the value in %, with no unit written.

Recorded Wt % Octanoic Acid (resulting, at compatibilization), per entry:
>  <COMPOUND>
CCCCOCCO

>  <MEASUREMENT UNITS>
%

>  <RECORDED VALUE>
5

$$$$
>  <COMPOUND>
COCC(C)O (stereo not drawn)

>  <MEASUREMENT UNITS>
%

>  <RECORDED VALUE>
6

$$$$
>  <COMPOUND>
CCOC(=O)CCC1(C)OCC(CO)O1 (stereo not drawn)

>  <MEASUREMENT UNITS>
%

>  <RECORDED VALUE>
4

$$$$
>  <COMPOUND>
CC1COC(C)(CCCO)O1 (stereo not drawn)

>  <MEASUREMENT UNITS>
%

>  <RECORDED VALUE>
5

$$$$
>  <COMPOUND>
CCO

>  <MEASUREMENT UNITS>
%

>  <RECORDED VALUE>
6

$$$$

// switching to the query compound
Request: Data request, read-out Wt % Octanoic Acid (resulting, at compatibilization), for COC(C)COC(C)CO (stereo not drawn)
Response: 6

---

- ASSAY OVERVIEW: Coupling of water and octanoic acid by hydrotropes (amount producing a single phase)
- Format: physicochemical
- TEST PARAMETERS: ratio of water:octanoic acid 50:50
// label = t if Wt % Octanoic Acid (resulting, at compatibilization) is not less than 20%, otherwise f

>  <COMPOUND>
CC1COC(C)(CCCO)O1 (stereo not drawn)

>  <CLASS>
t

$$$$
>  <COMPOUND>
COC(C)COC(C)CO (stereo not drawn)

>  <CLASS>
t

$$$$
>  <COMPOUND>
CCCCOCCO

>  <CLASS>
t

$$$$
>  <COMPOUND>
CCOC(=O)CCC1(C)OCC(CO)O1 (stereo not drawn)

>  <CLASS>
f

$$$$
>  <COMPOUND>
COCC(C)O (stereo not drawn)

>  <CLASS>
t

$$$$

With those in mind, consider the next compound.
Request: Kindly determine if Wt % Octanoic Acid (resulting, at compatibilization) recorded for CCO is above or exactly 20%.
Response: t

---

- ASSAY OVERVIEW: Coupling of water and soy methyl ester by hydrotropes
- Format: physicochemical
- TEST PARAMETERS: ratio of water:soy methyl esters 70:30
Reported Wt % Soy Methyl Esters (at compatibilization) values are given for each entry in this list.
Give the quantity in %, number only.

Request: Item under review: CC1COC(C)(CCCO)O1 (centres unmarked) [Ketal alcohol (1a)] . Reported Wt % Soy Methyl Esters (at compatibilization)?
Response: 5

Request: Requested field: Wt % Soy Methyl Esters (at compatibilization). Item: CCO [ethanol]
Response: 6

Request: Bench note: what Wt % Soy Methyl Esters (at compatibilization) did COC(C)COC(C)CO (centres unmarked) [DPM, dipropylene glycol methyl ether] show?
Response: 5

Request: Name the reported Wt % Soy Methyl Esters (at compatibilization) value associated with the compound COCC(C)O (centres unmarked) [PM, propylene glycol methyl ether]
Response: 5

Request: # input compound: CCOC(=O)CCC1(C)OCC(CO)O1 (centres unmarked) [EtLGK, glycerol ketal of ethyl levulinic acid] ; wanted: its Wt % Soy Methyl Esters (at compatibilization)
Response: 4
